target: rat α3β2 nAChR (Rattus norvegicus, UniProt P04757+P12390); experiment: cell-based
Sequence (P04757 26-499 limits assumed): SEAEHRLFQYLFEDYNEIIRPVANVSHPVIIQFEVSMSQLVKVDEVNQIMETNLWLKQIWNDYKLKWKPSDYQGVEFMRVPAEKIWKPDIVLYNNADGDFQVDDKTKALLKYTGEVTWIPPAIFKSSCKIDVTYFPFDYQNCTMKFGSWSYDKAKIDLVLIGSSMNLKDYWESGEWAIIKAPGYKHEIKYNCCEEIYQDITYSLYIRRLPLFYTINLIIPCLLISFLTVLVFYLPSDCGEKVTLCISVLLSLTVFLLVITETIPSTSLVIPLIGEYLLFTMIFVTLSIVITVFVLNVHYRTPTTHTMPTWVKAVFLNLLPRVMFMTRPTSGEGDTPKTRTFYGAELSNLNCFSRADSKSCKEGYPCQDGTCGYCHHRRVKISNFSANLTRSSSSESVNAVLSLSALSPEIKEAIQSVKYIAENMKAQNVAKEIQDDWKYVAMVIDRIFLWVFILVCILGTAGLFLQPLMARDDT
Sequence (P12390 25-500 limits assumed): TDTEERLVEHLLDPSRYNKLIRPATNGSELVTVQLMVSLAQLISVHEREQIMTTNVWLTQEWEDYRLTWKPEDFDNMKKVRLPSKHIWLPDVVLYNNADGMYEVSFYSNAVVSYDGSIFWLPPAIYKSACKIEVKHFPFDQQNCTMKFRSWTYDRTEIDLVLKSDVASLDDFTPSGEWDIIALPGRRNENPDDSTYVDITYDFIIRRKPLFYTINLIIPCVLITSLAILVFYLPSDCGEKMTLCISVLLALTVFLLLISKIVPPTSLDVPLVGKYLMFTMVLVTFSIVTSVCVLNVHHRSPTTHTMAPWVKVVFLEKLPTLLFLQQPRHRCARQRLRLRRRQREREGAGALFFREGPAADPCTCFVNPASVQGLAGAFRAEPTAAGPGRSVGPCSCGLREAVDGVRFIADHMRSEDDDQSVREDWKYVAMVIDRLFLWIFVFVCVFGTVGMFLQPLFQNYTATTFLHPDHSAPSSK
Where a SMILES comes first, the peptide text is derived from it. Bridges are numbered along the chain shown (N, C = ends).
assayMetric: pIC50
// scale note: pIC50 = -log10(conc_M); give the bare number

Report measured pIC50 on rat α3β2 nAChR (Rattus norvegicus, UniProt P04757+P12390); entry: CC[C@H](C)[C@@H]1NC(=O)[C@@H]2CCCN2C(=O)[C@@H]2CSSC[C@H](NC(=O)[C@@H](N)CC(N)=O)C(=O)N[C@@H](CSSC[C@@H](C(N)=O)NC(=O)[C@H](CC(N)=O)NC(=O)[C@H](Cc3ccccc3)NC(=O)[C@H](CCCNC(=N)N)NC(=O)[C@H](CO)NC(=O)[C@H](C)NC(=O)[C@H](CC(=O)O)NC1=O)C(=O)N[C@@H](CCSC)C(=O)N[C@@H](Cc1ccccc1)C(=O)N[C@@H](Cc1c[nH]cn1)C(=O)N[C@@H]([C@@H](C)O)C(=O)N2 [Vt1.27[Y12A]] (H-NCCMFHTCPIDASRFNC-NH2; disulfide 2-8, 3-17)
5.59

* * *

target: rat α3β2 nAChR (Rattus norvegicus, UniProt P04757+P12390); assay: cell-based
Where a SMILES comes first, the peptide text is derived from it. Bridges are numbered along the chain shown (N, C = ends).
assayMetric: pIC50
// scale note: pIC50 = -log10(conc_M); give the bare number

Give recorded pIC50. CC[C@H](C)[C@@H]1NC(=O)[C@H](C)NC(=O)[C@@H]2CSSC[C@H](NC(=O)[C@@H](N)CC(N)=O)C(=O)N[C@@H](CSSC[C@@H](C(N)=O)NC(=O)[C@H](CC(N)=O)NC(=O)[C@H](Cc3ccccc3)NC(=O)[C@H](CCCNC(=N)N)NC(=O)[C@H](CO)NC(=O)[C@H](Cc3ccc(O)cc3)NC(=O)[C@H](CC(=O)O)NC1=O)C(=O)N[C@@H](CCSC)C(=O)N[C@@H](Cc1ccccc1)C(=O)N[C@@H](Cc1c[nH]cn1)C(=O)N[C@@H]([C@@H](C)O)C(=O)N2 [Vt1.27[P9A]] (H-NCCMFHTCAIDYSRFNC-NH2; disulfide 2-8, 3-17)
5.03

Give recorded pIC50. CC[C@H](C)[C@@H]1NC(=O)[C@@H]2CCCN2C(=O)[C@@H]2CSSC[C@H](NC(=O)[C@@H](N)CC(N)=O)C(=O)N[C@@H](CSSC[C@@H](C(N)=O)NC(=O)[C@H](CC(N)=O)NC(=O)[C@H](Cc3ccccc3)NC(=O)[C@H](C)NC(=O)[C@H](CO)NC(=O)[C@H](Cc3ccc(O)cc3)NC(=O)[C@H](CC(=O)O)NC1=O)C(=O)N[C@@H](CCSC)C(=O)N[C@@H](Cc1ccccc1)C(=O)N[C@@H](Cc1c[nH]cn1)C(=O)N[C@@H]([C@@H](C)O)C(=O)N2 [Vt1.27[R14A]] (H-NCCMFHTCPIDYSAFNC-NH2; disulfide 2-8, 3-17)
5.54

Hello, the source for this data is paper PMC9230573, in case you need it.
